assay: melting temperature; fluorescence melt of hairpins on a sequencing array, two-state fit, raised by 9.35 °C to match UV melts; conditions: sodium 0.088 M
Catalogue of Tm readings, one per entry.
property_measured: Tm

query_sequence="GCTGCCGAAAGGCGGAGC ((((((....)))..)))" result="51.3 °C"
query_sequence="GTGTTTCGAAAGAACCAC (((.(((....))).)))" result="43 °C"
query_sequence="CGAGGCCGGAAACGGTCG (((..(((....))))))" result="48.5 °C"
query_sequence="GCCATGGAAACATGGC ((((((....))))))" result="67.7 °C"
query_sequence="GATCTGCCGCAGATC ((((((...))))))" result="48.1 °C"
query_sequence="GGGAGAGCGAAAGCTCCC (((..(((....))))))" result="53.7 °C"
query_sequence="GCGTCGCACGC ((((...))))" result="64.5 °C"
query_sequence="GATTGGCGAAAGCCCATC (((.(((....))).)))" result="38.4 °C"
query_sequence="GCCAGGCGAAAGCAGGGC (((..((....))..)))" result="64 °C"
query_sequence="GTTTGAGGAAACTTAAGC (.((.((....)).)).)" result="31.9 °C"
query_sequence="GATCAACTATTGATC ((((((...))))))" result="41 °C"
query_sequence="GCGGGCGCGAAAGCGCGC (((..(((....))))))" result="63 °C"
query_sequence="GACGGGCGAAAGCCGGTC (((.(((....))).)))" result="65.5 °C"
query_sequence="GTCGGGCGAAAGCCGGAC (((.(((....))).)))" result="67.7 °C"
query_sequence="GGATAACGAAAGTTTTCC (((.(((....))).)))" result="43.7 °C"
query_sequence="GCGAACGAAAGTTTCGC ((((((....))).)))" result="60 °C"
query_sequence="GTAGACGGAAACATCTAC (((((.(....).)))))" result="31 °C"
query_sequence="GCAGACGAAAGTCTTGC ((((((....))).)))" result="51.3 °C"
query_sequence="GCGATTGGAAACAGTCGC ((((.((....)).))))" result="54.2 °C"
query_sequence="GCCCGACGAAAGTCCGGC (((.(((....))).)))" result="51.8 °C"
query_sequence="GATCCAATGCTGGATC ((((((....))))))" result="49.1 °C"
query_sequence="GCGGTCGAAAGACAGCGC ((((((....)))..)))" result="69.2 °C"
query_sequence="GGTAGAACGAAAGTTACC (((..(((....))))))" result="35 °C"
query_sequence="GTTTGCGGAAACGCGAAC (((.(((....))).)))" result="56.9 °C"
query_sequence="GGTCCCCGAAAGGGTACC (((.(((....))).)))" result="53.3 °C"
query_sequence="GGTGTCCGAAAGGAGACC (((.(((....))).)))" result="58.3 °C"
query_sequence="GTTTCAACGAAAGTTAAC (((..(((....))))))" result="35.5 °C"
query_sequence="GCGTGCGGAAACGCGTGC ((..(((....)))..))" result="53.5 °C"
query_sequence="GGAGGGGGAAACCTCTCC ((((.((....)).))))" result="51.3 °C"
query_sequence="GATCCTCCTGAGGATC ((((((....))))))" result="57.2 °C"
query_sequence="GGGTGTGGAAACGCACCC (((((.(....).)))))" result="60 °C"
query_sequence="GATCTTAAAAAAGATC ((((((....))))))" result="33.7 °C"
query_sequence="GCGATCAATCGC ((((....))))" result="51.1 °C"
query_sequence="GAGTCCGAAAGGAACCTC ((((((....)))..)))" result="33 °C"
query_sequence="GCCCAAGAAATTGGGC ((((((....))))))" result="63.1 °C"
query_sequence="GATCACAAAAGTGATC ((((((....))))))" result="54.7 °C"
query_sequence="GCCCAGCGAAAGCTCTGC ((..(((....)))..))" result="26.9 °C"
query_sequence="GGAACCGAAAGGTGTCC ((((((....))).)))" result="47.5 °C"
query_sequence="GGGGAGGGAAACCTCTCC ((.((((....)))).))" result="51.8 °C"
query_sequence="GATCTGATCTCAGATC ((((((....))))))" result="51.1 °C"
query_sequence="GCCGCTGGAAACAGCAGC ((.((((....)))).))" result="50.1 °C"
query_sequence="GATCGAAGATTCGATC ((((((....))))))" result="51.4 °C"
query_sequence="GAATTCCGAAAGGATTTC (((.(((....))).)))" result="40.7 °C"
query_sequence="GCAATGCGAAAGCTCTGC (((..((....))..)))" result="37.2 °C"
query_sequence="GACATAGGAAACTGTGTC ((((.((....)).))))" result="44.4 °C"
query_sequence="GATCTACTGGTAGATC ((((((....))))))" result="52.8 °C"
